Listing of entries alongside the reported composite z-score.
- tgt: Epidermal growth factor receptor (Homo sapiens) (UniProt P00533)
- Sequence (P00533 whole entry, looked up): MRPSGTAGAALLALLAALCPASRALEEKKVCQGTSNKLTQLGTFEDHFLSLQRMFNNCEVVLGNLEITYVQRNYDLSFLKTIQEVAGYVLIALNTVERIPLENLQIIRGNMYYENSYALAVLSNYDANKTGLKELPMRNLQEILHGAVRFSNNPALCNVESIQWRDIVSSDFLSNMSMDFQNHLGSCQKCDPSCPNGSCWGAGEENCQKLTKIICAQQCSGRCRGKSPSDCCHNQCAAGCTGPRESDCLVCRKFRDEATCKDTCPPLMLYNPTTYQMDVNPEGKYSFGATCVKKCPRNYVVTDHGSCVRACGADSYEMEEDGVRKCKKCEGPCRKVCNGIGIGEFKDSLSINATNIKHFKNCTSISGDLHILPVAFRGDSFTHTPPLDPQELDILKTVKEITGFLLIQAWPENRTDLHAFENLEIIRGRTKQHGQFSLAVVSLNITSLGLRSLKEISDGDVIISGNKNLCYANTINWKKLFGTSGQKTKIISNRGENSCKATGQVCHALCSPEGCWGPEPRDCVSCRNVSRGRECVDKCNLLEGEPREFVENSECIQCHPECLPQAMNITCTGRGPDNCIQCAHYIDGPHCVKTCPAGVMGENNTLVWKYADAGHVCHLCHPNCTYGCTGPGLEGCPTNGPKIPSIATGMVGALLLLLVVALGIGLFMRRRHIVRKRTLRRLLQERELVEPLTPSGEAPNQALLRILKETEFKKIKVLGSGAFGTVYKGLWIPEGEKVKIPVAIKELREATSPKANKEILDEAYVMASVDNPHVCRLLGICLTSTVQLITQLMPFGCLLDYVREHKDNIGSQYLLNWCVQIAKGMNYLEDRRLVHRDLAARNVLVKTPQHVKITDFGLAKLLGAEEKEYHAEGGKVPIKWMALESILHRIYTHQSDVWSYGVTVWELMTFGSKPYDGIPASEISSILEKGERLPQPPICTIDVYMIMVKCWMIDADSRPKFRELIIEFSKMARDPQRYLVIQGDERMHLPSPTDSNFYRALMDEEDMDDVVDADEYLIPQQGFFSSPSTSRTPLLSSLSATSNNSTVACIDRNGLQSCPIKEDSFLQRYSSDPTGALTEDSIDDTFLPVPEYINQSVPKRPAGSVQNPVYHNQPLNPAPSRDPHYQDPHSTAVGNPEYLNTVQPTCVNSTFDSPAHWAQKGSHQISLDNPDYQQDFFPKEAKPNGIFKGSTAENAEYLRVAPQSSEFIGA
- test: EGFR binders on small-molecule microarrays, primary screen, biochemical, small-molecule microarray, 635 nm fluorescence (AID 1104);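 further: score merges 667 nm emission intensity with spot signal to noise over triplicate slides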
- setup_conditions: EGFR binding, higher = more signal

{"compound": "CCc1cccc(NC(=O)O[C@H]2[C@H](OC(=O)Nc3ccc4c(c3)OCO4)[C@H](OC(=O)Nc3ccc4c(c3)OCO4)[C@@H](OC)O[C@@H]2CO)c1", "composite z-score": -0.438}
{"compound": "CC(C)CNC(=O)[C@@H]1c2ccccc2C(=O)N(C(C)C)[C@H]1c1ccc(CO)cc1", "composite z-score": -0.5}
{"compound": "CCCCN1CC=CC23O[C@@H]4/C=C\\CCC(C)OC(=O)C4[C@H]2C(=O)N(C(C)CO)[C@@H]3C1=O (some centres not stated)", "composite z-score": -0.659}
{"compound": "CC(C)CNC(=O)[C@@]1(C)c2ccccc2C(=O)N(Cc2cc(F)cc(C(F)(F)F)c2)[C@H]1c1ccc(CO)cc1", "composite z-score": 0.181}
{"compound": "CCOC(=O)C1=CC[C@@H](c2ccccc2)N(S(=O)(=O)c2ccc(C)cc2)[C@H]1C#N", "composite z-score": -0.106}
{"compound": "[N-]=[N+]=NCc1ccccc1C[C@]1(C(=O)N2CCOCC2)N=C(c2ccc(OCCCO)cc2)O[C@H]1c1ccccc1CN=[N+]=[N-]", "composite z-score": -0.134}
{"compound": "COc1ccccc1CN1C(=O)c2ccccc2[C@](Cc2ccccc2I)(C(=O)NCCCN(C)C)[C@@H]1c1ccc(CO)cc1", "composite z-score": 0.221}

###

- test: small-molecule microarray binders of probe aWnt5a, primary screen, biochemical, biotinylated probe, 635/667 nm fluorescence (AID 1113);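 further: score merges 667 nm fluorescence intensity with signal-to-noise per printed feature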
- setup_conditions: higher = more signal
Kind request: treat 0.06 as inclusive, so composite z-score at 0.06 or higher is satisfied, anything lower is not satisfied.

{"molecule": "CCC[C@@H]1C=C(C(=O)OCC)[C@H](c2ccccc2)N1S(=O)(=O)c1ccc(C)cc1", "label": "satisfied"}
{"molecule": "NCCCC[C@@H]1NC(=O)[C@H]2C[C@@H](C(=O)NCc3ccc(F)cc3)[C@@H](c3cccc(OCCO)c3)N2C1=O", "label": "not satisfied"}
{"molecule": "Cc1ccc(S[C@]2(C(=O)NCCN3CCOCC3)CC(=O)N(C3CCCCC3)[C@@H]2c2ccc(CO)cc2I)cc1", "label": "not satisfied"}
{"molecule": "CC(C)(C)OC(=O)CC[C@]1(C(=O)N2CCOCC2)N=C(c2ccc(OCCCO)cc2)O[C@H]1c1ccccc1CN=[N+]=[N-]", "label": "not satisfied"}
{"molecule": "C[C@H]1NC(=O)C([C@@H](C)OCc2ccccc2)NC(=O)[C@@]23C(=O)N[C@@H](Cc4ccccc4)C2[C@H](C)[C@@]2(C)O[C@H]2C3/C=C/C/C=C\\CNC1=O (stereo not given in full)", "label": "not satisfied"}
{"molecule": "COC(=O)C1=CC(CCCO)=CC(c2ccc(CN3CCCC3)cc2)N(Cc2sc3ccccc3c2Cl)C=C1C(=O)OC (stereo not given)", "label": "satisfied"}
{"molecule": "COc1cc2c(cc1O)C(c1ccc(CN3CCCC3)cc1)N(Cc1cccc(OC(F)(F)F)c1)CC2 (stereo not given)", "label": "not satisfied"}
{"molecule": "N[C@@H](Cc1ccccc1)Cn1cc(C2(O)CCCCC2)nn1", "label": "not satisfied"}
{"molecule": "O=c1cccc(-c2ccccc2C(F)(F)F)o1", "label": "satisfied"}
{"molecule": "CCC[C@@H]1[C@@H](Sc2ccccc2)[C@@H](C(=O)O)[C@H](c2ccc(C)cc2)N1S(=O)(=O)c1ccc(C)cc1", "label": "satisfied"}
